Target: T1, recombinant human OX40-Fc (human, UniProt P43489 29-214)
T1 construct: also called rh-OX40-Fc; human OX40 hFC (R & D systems)
T1 sequence: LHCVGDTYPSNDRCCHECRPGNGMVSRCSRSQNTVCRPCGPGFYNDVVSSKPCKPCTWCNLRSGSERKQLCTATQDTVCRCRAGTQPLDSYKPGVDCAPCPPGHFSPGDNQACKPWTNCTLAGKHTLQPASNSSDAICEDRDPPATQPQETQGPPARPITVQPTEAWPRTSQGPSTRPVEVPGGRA
Test: ELISA, OX40-Fc coated, VHH at 8 nM
PARAMETER MEASURED: OD450

// solved cases for OD450 follow
>  <BINDER>
pgXX88-16 (VHH, not shown: small tags and cut ends) VHH: QVQLVESGGGLVQAGESLNLSCSASGSIRNNAVAWFRQGPGNQRLRVAAITNTGTTDYADSVQGRFSIARDNAENTVTLQMNSLKPEDTAIYYCKIYTLPVPISSHDDTWGQGTQVTVSS

>  <OBS VALUE>
1.52

$$$$
>  <BINDER>
pgXX88-SZ-4 (VHH, not shown: small tags and cut ends, also called ppXX88-SZ-4) VHH: QVQLVESGGGLAQPGSSLRLSCTASGTVFSILSATWFRQAPGKAHEARELVAFISSDGVSMHADSVKGRFTISRDNAASTVYLQMDNLQPEDTAVYFCKLSNSMMSLEYWGRGTQVTVSS

>  <OBS VALUE>
1.12

$$$$

(a) pgXX88-83 (VHH, not shown: small tags and cut ends) VHH: EVQLVESGGGLVQTGDSLRLSCAALGGTPSTYAIGWFRQAAGKELQFVARITWNGDTWYADALPGRVAISRDNAKKTVYLQMNNLKPEDTAEYICAADVSEFRDIPNRDSRANYRYWGQGTQVTVSS
(b) pgXX88-2 (VHH, not shown: small tags and cut ends) VHH: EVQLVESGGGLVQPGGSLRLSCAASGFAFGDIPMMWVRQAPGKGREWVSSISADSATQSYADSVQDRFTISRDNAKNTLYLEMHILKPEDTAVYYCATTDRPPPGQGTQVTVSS
Lower value of OD450 belongs to which: a or b ? // output: label of the selected item
a
(a: 0.183, b: 1.63)
